Experiment: Differential scanning fluorimetry (protein thermal shift; TM1 Fc, TM2 Fab)
Assay type: physicochemical
Conditions: melting temperature of the Fab domain; Table 11
Protocol: A protein thermal shift assay was carried out by mixing the protein to be assayed with an environmentally sensitive dye (SYPRO Orange, Life Technologies Cat #S-6650) in a phosphate buffered solution (PBS), and monitoring the fluorescence of the mixture in real time as it underwent controlled thermal denaturation. […] At the end of the experiment, the transition melting temperatures (TM1 and TM2) were determined using the Bio-Rad CFX manager software. […]
TM2 overview
OBSERVABLE: TM2 (°C)

SRP2196-A07 (antibody, V domains shown) VH: EVQLVESGGGLVQPGGSLRLSCAASGFNITGYYIHWVRQAPGKGLEWVGQISPNSGSTYYADSVKGRFTISADTSKNTAYLQMSSLRAEDTAVYYCARDSRRYVRGWDYWGQGTLVTVSS VL: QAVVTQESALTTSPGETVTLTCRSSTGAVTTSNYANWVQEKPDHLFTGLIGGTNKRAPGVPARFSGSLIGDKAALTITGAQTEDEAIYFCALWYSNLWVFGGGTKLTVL
74
SRP2196-B05 (antibody, V domains shown) VH: EVQLVESGGGLVQPGGSLRLSCAASGFNITGYYIHWVRQAPGKGLEWVGQISPNSGATYHADSVKGRFTISADTSKNTAYLQMNSLRAEDTAVYYCARDSRRYVRGWDYWGQGTLVTVSS VL: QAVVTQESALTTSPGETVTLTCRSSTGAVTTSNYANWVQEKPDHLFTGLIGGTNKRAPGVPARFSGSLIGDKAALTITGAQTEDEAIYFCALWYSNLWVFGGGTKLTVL
73
SRP2196-A02 (antibody, V domains shown) VH: EVQLVESGGGLVQPGGSLRLSCAASGFNITGYYIHWVRQAPGKGLEWVGQISPNSGATHDADSVKGRFTISADTSKNTAYLQMNSLRAEDTAVYYCARDSRRYVRGWDYWGQGTLVTVSS VL: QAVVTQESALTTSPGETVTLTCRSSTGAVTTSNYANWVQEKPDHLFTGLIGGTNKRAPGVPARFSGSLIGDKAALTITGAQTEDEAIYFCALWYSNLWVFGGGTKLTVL
71
SRP2196-B10 (antibody, V domains shown) VH: EVQLVESGGGLVQPGGSLRLSCAASGFNITGYYIHWVRQAPGKGLEWVGSITPLSGATSKADSVKGRFTISADTSKNTAYLQMNSLRAEDTAVYYCARDSRRYIRSWDYWGQGTLVTVSS VL: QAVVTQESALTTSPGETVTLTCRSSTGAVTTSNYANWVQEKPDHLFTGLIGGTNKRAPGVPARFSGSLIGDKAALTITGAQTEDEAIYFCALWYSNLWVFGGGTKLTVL
70
SRP2196-A09 (antibody, V domains shown) VH: EVQLVESGGGLVQPGGSLRLSCAASGFNITGYYIHWVRQAPGKGLEWVGQISPNSGATHYADSVKGRFTISADTSKNTAYLQMNSLRAEDTAVYYCARDSRRYIRSWDYWGQGTLVTVSS VL: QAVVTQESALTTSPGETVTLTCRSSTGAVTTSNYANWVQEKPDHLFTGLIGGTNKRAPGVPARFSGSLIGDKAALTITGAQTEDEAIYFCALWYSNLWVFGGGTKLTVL
75

Origin of measurements: patent US12226490B2
